# System: human butyrylcholinesterase (BChE) (Homo sapiens, UniProt P06276)
# Construct: BChE from human serum (50 U/mg); from tissue; host or cells: human serum
# Sequence (P06276 29-602): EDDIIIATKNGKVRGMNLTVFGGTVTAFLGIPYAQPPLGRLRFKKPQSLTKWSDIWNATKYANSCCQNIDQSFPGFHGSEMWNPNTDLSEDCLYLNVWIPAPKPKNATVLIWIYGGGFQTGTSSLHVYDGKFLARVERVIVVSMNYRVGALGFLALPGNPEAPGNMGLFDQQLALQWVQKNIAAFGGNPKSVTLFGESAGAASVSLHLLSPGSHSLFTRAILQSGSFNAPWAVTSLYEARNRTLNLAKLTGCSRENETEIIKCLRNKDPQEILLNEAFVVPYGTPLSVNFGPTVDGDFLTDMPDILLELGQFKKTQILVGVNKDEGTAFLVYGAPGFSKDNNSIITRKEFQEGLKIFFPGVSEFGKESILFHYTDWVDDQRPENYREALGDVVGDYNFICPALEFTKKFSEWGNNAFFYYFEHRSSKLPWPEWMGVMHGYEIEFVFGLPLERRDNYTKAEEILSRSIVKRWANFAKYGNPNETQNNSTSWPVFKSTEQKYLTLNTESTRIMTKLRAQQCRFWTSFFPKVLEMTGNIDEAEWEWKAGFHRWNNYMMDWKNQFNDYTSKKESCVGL
# Protocol Details: BChE inhibition, Ellman's method
# Format: biochemical
# Experimental Setup: at 10 μM, mean ± SD (n = 3); n.i. = no inhibition
Assay Metric: % inhibition hBChE

CCOc1ccc(-c2c(/C=N/c3ccc(OC)cc3)cn3c2-c2cc(OCC)c(OCC)cc2CC3)cc1OCC [Compound 7] ... n.i.
COc1ccc(/N=C/c2c(-c3ccc(Cl)cc3)c3n(c2-c2ccccc2)CCc2cc(OC)c(OC)cc2-3)cc1 [Compound 10] ... n.i.
COc1ccc(/N=C/c2cn3c(c2-c2ccc(F)cc2)-c2cc(OC)c(OC)cc2CC3)cc1 [Compound 11] ... n.i.

###

For each of the compounds below, state its pIC50.
# System: K562 (chronic myelogenous leukemia) cells
# Protocol Details: Cytotoxicity, Alamar Blue (resazurin) assay, K562 cells
# Assay type: cell-based
# Experimental Setup: Homo sapiens, read-out: IC50, 50% inhibition of the cell population growth, 72 h, mean ± SD
Formally, pIC50 is defined as -log10 of the concentration c, with c in mol/L.

Reported pIC50 of `CCOc1ccc(-c2c(/C=N/CC/N=C/c3cn4c(c3-c3ccc(OCC)c(OCC)c3)-c3cc(OCC)c(OCC)cc3CC4)cn3c2-c2cc(OCC)c(OCC)cc2CC3)cc1OCC` : 3.54

Sure, the documented pIC50 for CCOc1ccc(-c2c(CN(C)CCNC)cn3c2-c2cc(OCC)c(OCC)cc2CC3)cc1OCC.O=C(O)/C=C/C(=O)O [Compound 17a] is 4.33

pIC50 reported for this compound `COc1ccc(/N=C/c2cn3c(c2-c2ccc(Cl)cc2)-c2cc(OC)c(OC)cc2CC3)cc1` : 3.98

###

Please provide measured IC50 for the entries that follow.
# Test system: K562 (chronic myelogenous leukemia) cells
# Protocol Details: Cytotoxicity, Alamar Blue (resazurin) assay, K562 cells
# Type: cell-based
# Experimental Setup: Homo sapiens, read-out: IC50, 50% inhibition of the cell population growth, 72 h, mean ± SD
Give your result in µM as a bare value.

Value of IC50 reported for the compound `CCOc1ccc(-c2c(/C=N/c3ccc(OC)cc3)cn3c2-c2cc(OCC)c(OCC)cc2CC3)cc1OCC` is 171

# IC50 of COc1cc2c(cc1OC)-c1c(-c3ccc(Cl)cc3)c(/C=N/c3ccc(/N=C/c4c(-c5ccc(Cl)cc5)c5n(c4-c4ccccc4)CCc4cc(OC)c(OC)cc4-5)cc3)c(-c3ccccc3)n1CC2 [Compound 15a] = 251

// IC50 lookup, compound = COc1cccc2c1C(=O)c1c(O)c3c(c(O)c1C2=O)C[C@@](O)(C(=O)CO)C[C@@H]3O[C@H]1C[C@H](N)[C@H](O)[C@H](C)O1 [Doxorubicin, reference compound] , result: 1.75

###

# Test system: HCT116 (intestinal carcinoma) cells
# Protocol Details: Cytotoxicity, MTT assay, HCT116 cells
# Assay type: cell-based
# Experimental Setup: Homo sapiens, HCT-116, read-out: IC50, 50% inhibition of the cell population growth, 72 h, mean ± SD
Exercise: state measured pIC50 for each of the compounds provided.
Remember, pIC50 is on a log scale: it is -log10 of the molar concentration.

Briefly, pIC50 measured for `CCOc1ccc(-c2c(/C=N/c3ccc(OC)cc3)c(-c3ccccc3)n3c2-c2cc(OCC)c(OCC)cc2CC3)cc1OCC` : 3.54

Data point: CCOc1ccc(-c2c(/C=N/CCCN(C)C)cn3c2-c2cc(OCC)c(OCC)cc2CC3)cc1OCC.Cl.Cl [Compound 16a] ; pIC50 = 4.22

The value of pIC50 measured for the compound `COc1ccc(/N=C/c2c(-c3ccc(F)cc3)c3n(c2-c2ccccc2)CCc2cc(OC)c(OC)cc2-3)cc1` turned out to be 3.83

Just so you know, measured pIC50 for COc1cccc2c1C(=O)c1c(O)c3c(c(O)c1C2=O)C[C@@](O)(C(=O)CO)C[C@@H]3O[C@H]1C[C@H](N)[C@H](O)[C@H](C)O1 [Doxorubicin, reference compound] came out at 6.85

Reported pIC50 ( `COc1ccc(/N=C/c2cn3c(c2-c2ccc(Cl)cc2)-c2cc(OC)c(OC)cc2CC3)cc1` ) = 4.43

Sample `CCOc1ccc(-c2c(/C=N/CC/N=C/c3cn4c(c3-c3ccc(OCC)c(OCC)c3)-c3cc(OCC)c(OCC)cc3CC4)cn3c2-c2cc(OCC)c(OCC)cc2CC3)cc1OCC` ; pIC50 observed: 3.40

According to the records, this compound `COc1cc2c(cc1OC)-c1c(-c3ccc(F)cc3)c(C=O)cn1CC2` displays pIC50 of 4.49

Just so you know, measured pIC50 for `COc1cc2c(cc1OC)-c1c(-c3ccc(Cl)cc3)c(C=O)c(-c3ccccc3)n1CC2` came out at 3.60

For this compound ( `COc1cc2c(cc1OC)-c1c(-c3ccc(Cl)cc3)c(/C=N/c3ccc(/N=C/c4cn5c(c4-c4ccc(Cl)cc4)-c4cc(OC)c(OC)cc4CC5)cc3)cn1CC2` ), measured pIC50 is 3.41

Short answer for CCOc1ccc(-c2c(/C=N/c3ccc(/N=C/c4cn5c(c4-c4ccc(OCC)c(OCC)c4)-c4cc(OCC)c(OCC)cc4CC5)cc3)cn3c2-c2cc(OCC)c(OCC)cc2CC3)cc1OCC [Compound 13a] : pIC50 was 3.99

Sure, the documented pIC50 for `COc1cc2c(cc1OC)-c1c(-c3ccc(Cl)cc3)c(C=O)cn1CC2` is 4.66

For record `COc1ccc(/N=C/c2c(-c3ccc(Cl)cc3)c3n(c2-c2ccccc2)CCc2cc(OC)c(OC)cc2-3)cc1` the listed pIC50 is 3.68

The reported value for CCOc1ccc(-c2c(CN(C)CCNC)cn3c2-c2cc(OCC)c(OCC)cc2CC3)cc1OCC.O=C(O)/C=C/C(=O)O [Compound 17a] in terms of pIC50 is 4.73

Documented pIC50 of `COc1cc2c(cc1OC)-c1c(-c3ccc(F)cc3)c(C=O)c(-c3ccccc3)n1CC2` : 3.58

For `COc1ccc(/N=C/c2cn3c(c2-c2ccc(F)cc2)-c2cc(OC)c(OC)cc2CC3)cc1` the compound record lists pIC50 as 3.94

Reported pIC50 for `CCOc1ccc(-c2c(/C=N/c3ccc(OC)cc3)cn3c2-c2cc(OCC)c(OCC)cc2CC3)cc1OCC` was 4.41

pIC50 recorded for this compound, COc1cc2c(cc1OC)-c1c(-c3ccc(Cl)cc3)c(/C=N/c3ccc(/N=C/c4c(-c5ccc(Cl)cc5)c5n(c4-c4ccccc4)CCc4cc(OC)c(OC)cc4-5)cc3)c(-c3ccccc3)n1CC2 [Compound 15a] , is 3.99

Where do these numbers come from? They come from paper PMC7827648.
